Experimental Target: MAGE-A11:PCF11 interaction (GST-MAGE-A11 and FAM-PCF11_4) (Homo sapiens, UniProt P43364)
Construct: GST-MAGE-A11 MHD (human MAGE-A11 MHD amino acid 218-429); made in house; host or cells: E. coli BL21(DE3)
Sequence (P43364 218-429): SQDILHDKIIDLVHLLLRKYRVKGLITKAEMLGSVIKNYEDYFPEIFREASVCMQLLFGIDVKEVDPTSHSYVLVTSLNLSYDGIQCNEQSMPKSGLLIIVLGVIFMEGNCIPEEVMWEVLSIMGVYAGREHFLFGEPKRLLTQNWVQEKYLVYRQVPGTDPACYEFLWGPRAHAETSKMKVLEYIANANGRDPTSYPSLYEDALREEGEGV
Assay Text: TR-FRET primary / single point screen at 15 µM
Type: binding
Measurement Conditions: single point TR-FRET screening of quinoline compounds against MAGE-A11:PCF11; 15 µM
# cutoff 4 applies to percent inhibition (TR-FRET); >= gives YES, < gives NO

>>> print(df.to_string())
                                   molecule  class
0  CCCN(CCCNc1c2ccc(Cl)cc2nc2ccc(OC)cc12)Cc1ccccc1O [SJ000520926]     NO
1  CCCN(CCCNc1c2ccc(Cl)cc2nc2ccc(OC)cc12)Cc1cccc(F)c1 [SJ000520945]     NO
2  CCCCCCN(CCC)CCCNc1ccnc2cc(Cl)ccc12 [SJ000523048]     NO
3  COc1ccc2nc3cc(Cl)ccc3c(NCCCNCc3ccc[nH]3)c2c1 [SJ000361084]     NO
4  CCCN(CCCNc1ccnc2cc(C(F)(F)F)ccc12)Cc1cncc(Br)c1 [SJ000521007]    YES
5  CCCN(CCCNc1c2ccc(Cl)cc2nc2ccc(OC)cc12)Cc1ccc(N(C)C)cc1 [SJ000520955]     NO
6  COc1ccc(C(F)(F)F)cc1CN(CCCNc1ccnc2cc(Cl)ccc12)Cc1ccccc1 [SJ000520450]    YES
7  CCCN(CCCNc1ccnc2cc(C(F)(F)F)ccc12)Cc1nccn1C [SJ000575170]    YES
8  Clc1ccc2c(NCCCN(Cc3ccccc3)CC3CC3)ccnc2c1 [SJ000357483]    YES

====

Assay Text: Solubility assay (μSOL Evolution)
Type: physicochemical
Measurement Conditions: citrate phosphate-buffered saline (isotonic) with 1% DMSO; 18 h at RT
Below, each entry is listed with its recorded solubility at 18 h.
Readout Kind: solubility at 18 h

>>> print(df.to_string())
                                   compound  experimental_result
0  FC(F)(F)c1ccc2c(NCCCNCc3ccc4[nH]ccc4c3)ccnc2c1 [SJ000521054-02]              26.5 µM
1  CC(C)(C)c1ccc(-c2ccc3c(NCCCNCc4ccco4)ccnc3c2)cc1 [SJ000311286-01]              56.2 µM
2  c1ccc2c(NCCCNCc3ccc4[nH]ccc4c3)ccnc2c1 [SJ001008066-01]              37.8 µM
3  FC(F)(F)c1cc(-c2ccc3c(NCCCNCc4ccco4)ccnc3c2)cc(C(F)(F)F)c1 [SJ000311270-01]              61.1 µM
